Literature survey of IC50 (system: human mPGES-1 (Homo sapiens, UniProt O14684)).
Sequence (O14684 whole entry): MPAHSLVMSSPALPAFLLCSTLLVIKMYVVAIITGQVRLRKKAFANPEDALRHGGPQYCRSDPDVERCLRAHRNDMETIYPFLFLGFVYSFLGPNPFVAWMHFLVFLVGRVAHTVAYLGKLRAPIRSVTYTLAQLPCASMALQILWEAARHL
readout.type: IC50 (nM)

molecule: COC1CCC2(CC1)CN(Cc1ccc(Cl)c(-c3nc(O)nc(-c4ccccc4)n3)c1)C2=O (single isomer, unassigned)
units.text: nM
test.result: 150
//
molecule: NS(=O)(=O)c1cccc(F)c1NS(=O)(=O)/C=C/c1cccc(Cl)c1
units.text: nM
test.result: 3100
//
molecule: NS(=O)(=O)c1ccccc1S(=O)(=O)NC(=O)c1ccc(OCc2ccccc2)c(OCCC(F)(F)F)c1
units.text: nM
test.result: 130
//
molecule: Cc1cccc(C)c1-c1nc(O)nc(-c2ccc(OC3CCC(C)(C)CC3)cc2)n1
units.text: nM
test.result: 295
//
molecule: Cc1c(Cl)cccc1NC(=O)c1cc(NC(=O)c2ccccc2C(F)(F)F)cc2[nH]c(C3(C)CC3)nc12
units.text: nM
test.result: 0.5

1: CN(Cc1ccc(Cl)c(-c2nc(O)nc(-c3ccccc3)n2)c1)C(=O)C1(C(F)(F)F)CCCC1
2: CN(Cc1ccc(Cl)c(-c2nc(O)nc(-c3ccccc3)n2)c1)C(=O)C1Cc2ccccc2C1
3: COc1cc(C(=O)NS(=O)(=O)c2ccccc2S(N)(=O)=O)ccc1C#Cc1ccccc1
4: CC(C)CC(=O)N(C)Cc1ccc(Cl)c(-c2nc(O)nc(-c3ccccc3)n2)c1
5: NS(=O)(=O)c1ccccc1S(=O)(=O)NC(=O)c1ccc(C#CC2CCCC2)c(OCCC(F)F)c1
Prompt: Rank ascending by IC50. Give your ranking as a list of the labels in the requested order.
Response: 1, 5, 3, 2, 4

A: COc1cc(C(=O)NS(=O)(=O)c2ccccc2S(N)(=O)=O)ccc1C#Cc1cccc(Cl)c1
B: Cc1cccc(C)c1-c1nc(O)nc(-c2ccc(OCc3ccccc3)nc2)n1
C: CC(C)Oc1ccc(-n2c(C(=O)O)c(CCC(=O)O)c3cc(-c4ccc(C(F)(F)F)cn4)ccc32)cc1
D: C/C(=C\c1ccc(Cl)cc1)S(=O)(=O)Nc1cccc(F)c1S(N)(=O)=O
Prompt: Put the items in sequence by IC50, from largest down. The labels, placed in the requested order, form the answer.
Response: C, D, B, A

----------
For reference, the following IC50 results for UniProt O14684 were taken from various sources.
readout.type: IC50 (µM)

Illustrative cases are given below, each with its answer.
compound: NS(=O)(=O)c1cc(Cl)c(F)cc1NS(=O)(=O)CCc1ccc(Cl)c(Cl)c1
tested.on: UniProt O14684
units.text: µM
test.result: 0.15
//
compound: COc1ccccc1C#Cc1ccc(-c2nc(O)nc(-c3c(OCc4cccc(C)n4)cccc3C(F)(F)F)n2)cc1
tested.on: UniProt O14684
units.text: µM
test.result: 0.0028

P: CC(Cc1ccccc1)S(=O)(=O)Nc1ccccc1S(N)(=O)=O (stereo not shown)
Q: Cc1cccc(C#Cc2ccc(-c3nc(O)nc(-c4c(OCc5ccccn5)cccc4C(F)(F)F)n3)cc2)c1
R: NS(=O)(=O)c1ccccc1S(=O)(=O)NC(=O)c1ccc(C#Cc2ccccn2)nc1
S: CC(C)(C)C#Cc1ccc(CCS(=O)(=O)Nc2ccsc2S(N)(=O)=O)cc1
T: CC(C)(C)COc1ccc(-c2nc(O)nc(-c3cc(CCC(=O)NC(C)(C)C)ccc3Cl)n2)cc1
Prompt: Falling order of IC50, please. # list labels per requested ordering
Response: R, P, S, T, Q

A: CCc1ccc(C)c(-c2nc(O)nc(-c3ccc(C(F)(F)F)cc3)n2)c1
B: CC(=O)OCc1ccc(Cl)c(-c2nc(O)nc(-c3ccc(C(F)(F)F)cc3)n2)c1
Prompt: Of A and B , which carries the smaller reported IC50 figure? I would appreciate it if you answered with the label of your choice.
Response: B
(B: 0.108 µM, A: 1.41 µM)

I: CC(F)(F)c1ccc(-c2nc(O)nc(-c3cc(CNC(=O)C(C)(C)C(F)(F)F)ccc3Cl)n2)cc1
II: CCCCOc1cccc(Cl)c1-c1nc(O)nc(-c2ccc(C(F)(F)F)cc2)n1
Prompt: Which entry shows the lesser value of IC50 here, I or II ? Your choice should be expressed through its label.
Response: I
(I: 0.001 µM, II: 0.031 µM)

A: O=C(Nc1cc(C(=O)NC2CCCCC2)c2[nH]ncc2c1)c1ccccc1C(F)(F)F
B: COc1c(-c2cc3ccccc3o2)ccc(C(=O)NS(=O)(=O)c2ccccc2S(N)(=O)=O)c1F
C: Cc1cccc(Cl)c1-c1nc(O)nc(-c2ccc(C(F)(F)F)cc2)n1
D: O=C(NCc1ccc(Cl)c(-c2nc(O)nc(-c3ccccc3)n2)c1)C1CCCC1
E: Cc1c(Cl)cccc1NC(=O)c1cc(NC(=O)c2ccccc2C(F)(F)F)cc2[nH]c(N3CCOCC3)nc12
Prompt: List items by IC50 in falling order. Put the labels in the order asked and list them.
Response: A, C, B, E, D
(A: 0.452 µM, C: 0.211 µM, B: 0.016 µM, E: 0.0016 µM, D: 0.001 µM)

a: NS(=O)(=O)c1cc(CO)ccc1NS(=O)(=O)CCc1ccc(F)cc1OCC1CCOCC1
b: COc1ccc(C#Cc2ccc(-c3nc(O)nc(-c4c(OCc5cccc(C)n5)cccc4C(F)(F)F)n3)cc2)cc1
Prompt: Given the listed records, identify the one among a and b with higher IC50. Select an item and report its label.
Response: a

1: CC(C)(C(=O)NCc1ccc(Cl)c(-c2nc(O)nc(-c3ccc(OCC4CCCCC4)cc3)n2)c1)C(F)(F)F
2: Cc1cccc(C)c1-c1nc(O)nc(-c2ccc(C(F)(F)F)cc2F)n1
3: Cc1ccc(-c2nc(O)nc(-c3cc(CNC(=O)C(C)(C)C(F)(F)F)ccc3Cl)n2)cc1C
Prompt: Number of compounds to sort: 3. Sort criterion: IC50, ascending. Please respond by ranking the labels in the order requested.
Response: 3, 1, 2

P: NS(=O)(=O)c1ccccc1S(=O)(=O)NC(=O)c1sc2cc(Cl)ccc2c1Cl
Q: N#Cc1cccc(OCc2ccccn2)c1-c1nc(O)nc(-c2ccc(C#Cc3ccccc3)cc2)n1
R: CCc1cccc(-c2nc(O)nc(-c3cc(CNC(=O)C(C)(C)C)ccc3Cl)n2)c1
S: CC(=O)N(C)c1c(C(=O)O)n(-c2ccc(OC(C)C)cc2)c2ccc(-c3ccc(C(F)(F)F)cn3)cc12
Prompt: Order by IC50, ascending. In plain terms: list the labels in the order you were asked to.
Response: R, Q, P, S

A: Cc1ccc(C#Cc2ccc(-c3nc(O)nc(-c4c(OCc5cccc(C)n5)cccc4C(F)(F)F)n3)cc2)cc1
B: Cc1ccccc1COc1cccc(Cl)c1-c1nc(O)nc(-c2ccc(C(F)(F)F)cc2)n1
Prompt: Given the two records A and B , choose the one whose IC50 value is lower. Respond using the label that marks the chosen record.
Response: A
(A: 0.0062 µM, B: 0.011 µM)
